// reported IC50 for each item listed
tested_target: HA-GST-Rheb (GTP-γ-S loaded) activating mTORC1 (Homo sapiens (Human))
assay_explanation: Rheb-dependent in vitro kinase assay (Rheb-IVK; LanthaScreen or Western readout)
Type: biochemical
condition_summary: Rheb-dependent in vitro kinase assay; read-out: IVK IC50

| line_notation | tested_target | IC50 |
| --- | --- | --- |
| OCc1nc2cc(OCc3ccc(Oc4ccccc4)cc3)c(Cl)c(Cl)c2[nH]1 | HA-GST-Rheb (GTP-γ-S loaded) activating mTORC1 (Homo sapiens (Human)) | 10 to 100 µM |
| O=C(O)c1cc2c(Br)cc(Sc3ccc(Cl)c(Cl)c3)cc2n1Cc1ccc(C(=O)N2CCNCC2)cc1 | HA-GST-Rheb (GTP-γ-S loaded) activating mTORC1 (Homo sapiens (Human)) | > 100 µM |
| Cn1c(CO)cc2c(Oc3cccc(Cl)c3)cccc21 | HA-GST-Rheb (GTP-γ-S loaded) activating mTORC1 (Homo sapiens (Human)) | > 3 µM |
| O=C(NCc1ccccn1)c1cc2c(Sc3ccc(Cl)cc3)cc(Cl)cc2[nH]1 | HA-GST-Rheb (GTP-γ-S loaded) activating mTORC1 (Homo sapiens (Human)) | 10 to 100 µM |
| CCOCc1nc2c(Cl)cc(OCc3ccccc3)cc2n1CC | HA-GST-Rheb (GTP-γ-S loaded) activating mTORC1 (Homo sapiens (Human)) | > 100 µM |
| O=C(O)c1cc2c(Oc3cc(Cl)ccc3Cl)cc(Cl)cc2[nH]1 | HA-GST-Rheb (GTP-γ-S loaded) activating mTORC1 (Homo sapiens (Human)) | 10 to 100 µM |
| OCc1nc2cc(SCc3ccc(Cl)cc3)c(Cl)c(Cl)c2[nH]1 | HA-GST-Rheb (GTP-γ-S loaded) activating mTORC1 (Homo sapiens (Human)) | 10 to 100 µM |
| OCc1nc2c(Oc3ccc(Cl)cc3)cccc2n1Cc1nc[nH]n1 | HA-GST-Rheb (GTP-γ-S loaded) activating mTORC1 (Homo sapiens (Human)) | > 100 µM |
| OCc1cc2c(Oc3ccccc3)cc(Cl)cc2[nH]1 | HA-GST-Rheb (GTP-γ-S loaded) activating mTORC1 (Homo sapiens (Human)) | 10 to 100 µM |

Okay, now this compound:
Short answer please: IC50, HA-GST-Rheb (GTP-γ-S loaded) activating mTORC1 (Homo sapiens (Human)), entry O=C(O)c1cc2c(Sc3ccc(F)c(F)c3)cc(Cl)cc2[nH]1
10 to 100 µM

====

// reported IC50 for each item listed
tested_target: HA-GST-Rheb (GTP-γ-S loaded) activating mTORC1 (Homo sapiens (Human), UniProt Q15382)
Sequence (Q15382 1-181): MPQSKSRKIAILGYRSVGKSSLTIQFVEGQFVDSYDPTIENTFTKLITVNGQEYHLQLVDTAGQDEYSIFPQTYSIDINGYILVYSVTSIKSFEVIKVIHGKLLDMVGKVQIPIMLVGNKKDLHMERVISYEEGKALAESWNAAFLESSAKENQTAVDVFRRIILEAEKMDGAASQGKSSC
assay_explanation: Rheb-dependent in vitro kinase assay (Rheb-IVK; LanthaScreen or Western readout)
Type: biochemical
condition_summary: Rheb-dependent in vitro kinase assay; read-out: IVK IC50

Below are worked cases with known answers.
| compound | meas_value |
| --- | --- |
| O=C(O)c1cc2c(Br)cc(Sc3ccc(Cl)c(Cl)c3)cc2n1Cc1ccc(C(=O)N(CCO)CCO)cc1 | < 10 µM |
| Clc1ccc(Sc2cccc3c2ccn3Cc2nc[nH]n2)cc1 | 10 to 100 µM |

Short answer please: IC50, HA-GST-Rheb (GTP-γ-S loaded) activating mTORC1 (Homo sapiens (Human), UniProt Q15382), entry Clc1ccc(CSc2cccc3[nH]ccc23)cc1Cl
> 100 µM

Try this compound next: Clc1ccc(Sc2cc(Cl)cc3[nH]c(-c4c[nH]c5ncccc45)nc23)cc1
> 3 µM

Try this compound next: c1ccc(Sc2cccc3[nH]ccc23)nc1
> 100 µM

Try this compound next: O=C(O)c1ccc(CCn2c(-c3c[nH]c4ncccc34)nc3cc(Cl)c(Cl)cc32)cc1
100 to 300 µM

Try this compound next: COc1ccc(COc2cc3nc(CO)[nH]c3c(Cl)c2Cl)cc1
> 100 µM

Try this compound next: OCc1nc2c(OC[C@H]3CCCC[C@@H]3O)c(Cl)c(Cl)cc2n1Cc1cc(Cl)ccc1Cl
> 100 µM

Try this compound next: N#Cc1ccc(-c2nc3cc(Cl)c(Cl)cc3[nH]2)cc1
10 to 100 µM

Try this compound next: CN1CCN(C(=O)c2ccc(Cn3c(C(=O)O)cc4c(Br)cc(Sc5ccc(Cl)c(Cl)c5)cc43)cc2)CC1
10 to 100 µM

Try this compound next: CCn1c(CO)nc2cc(Cl)c(OCc3ccc(Cl)cc3)cc21
> 100 µM

Try this compound next: Clc1ccc2nc(-c3ncco3)n(Cc3ccc(-c4nnn[nH]4)cc3)c2c1
10 to 100 µM

Try this compound next: O=C(O)c1cc2c(Sc3ccc(Br)cc3)cc(Cl)cc2[nH]1
10 to 100 µM

Try this compound next: Cn1ccc2c(Oc3cccc(F)c3)cccc21
> 100 µM

Try this compound next: OCc1cc2c(Cl)cc(Oc3ccccc3)cc2n1Cc1nn[nH]n1
10 to 100 µM

Try this compound next: O=C1CCc2ccc(Oc3cc(Cl)cc4[nH]c(CO)cc34)cc2N1
> 100 µM

Try this compound next: O=C(O)Cn1c(C(=O)O)cc2c(Oc3cc(Cl)ccc3Cl)cc(Cl)cc21
100 to 300 µM

Try this compound next: c1ccc(Oc2cccc3c2nc(-c2ncco2)n3Cc2ccc(-c3nnn[nH]3)cc2)cc1
10 to 100 µM

Try this compound next: CN1CC(NC(=O)c2cc3c(Sc4ccc(Cl)cc4Cl)cc(Cl)c(Cl)c3[nH]2)C1
> 100 µM
